- Test system: C57BL/6 mice
- method_notes: Food intake in fasted mice after injection of peptide
- Type: in vivo, mouse
- condition_set: Example 9; mice; food intake during the first hour after injection; activity relative to oxm (1400 nmol/kg)
No end group written: not given here.

{"substance": "D-His Ala Gln Gly Thr Phe Thr Ser Asp Tyr Ser Lys Tyr Leu Asp Ser Arg Arg Ala Gln Asp Phe Val Gln Trp Leu Met Asn Thr Lys Arg Asn Arg Asn Asn Ile Ala (XAQGTFTSDYSKYLDSRRAQDFVQWLMNTKRNRNNIA; D-His at position 1; Oxm Analogue; D-His) [D-His-Ala2-oxm]", "target_or_test_system": "C57BL/6 mice", "Multiples of food inhibition Factor": 2.5}
{"substance": "HSQGTFTSDYSKYLEEEAVRLFIEWLMNTKRNRNNIA [oxm(xx15-24)]", "target_or_test_system": "C57BL/6 mice", "Multiples of food inhibition Factor": 400}
{"substance": "His Ser Gln Gly Thr Phe Thr Ser Asp Tyr Ser Lys Tyr Leu Asp Ser Arg Arg Ala Gln Asp Phe Val Gln Trp Leu Lys Asn Gly Gly Pro Ser Ser Asn Asn Ile Ala (HSQGTFTSDYSKYLDSRRAQDFVQWLKNGGPSSNNIA; Oxm Analogue) [oxm(xx27-33)]", "target_or_test_system": "C57BL/6 mice", "Multiples of food inhibition Factor": 7}
{"substance": "HSQGTFTSDYSKYLEEEAVRLFVQWLMNTKRNRNNIA [oxm(xx15-21)]", "target_or_test_system": "C57BL/6 mice", "Multiples of food inhibition Factor": 200}

These data points were gathered from patent US20090298757A1.
